# Organism: Rattus norvegicus
# Protocol: Compound was evaluated for its inhibitory concentration against X/XO- induced oxidative neuronal damage in primary cultured rat cortical cells
# Assay type: functional, cell-based
Below: a set of entries, each annotated with reported pIC50.
Hey, just a heads up that pIC50 is the negative log base 10 of the concentration in molar.

Compound	Recorded Measurement
Cc1ccc(CCCNC(=O)/C=C/c2ccc(O)c(O)c2)cc1C	5.60
Cc1ccc(CCCNC(=O)Cc2ccc(O)c(O)c2)cc1C	5.48
Cc1c(C)c2c(c(C)c1O)CCC(C)(C(=O)O)O2 (centres undefined) [TROLOX]	3.69

Qu. Tell me its pIC50 given `Cc1ccc(CCCNC(=O)Cc2cc(O)c(O)c(O)c2)cc1C` as the entry.
Ans. 4.46
